Tested on: A549/ATCC NSCLC
Assay: NCI-60 one-dose screen, 48 h (100 = growth as untreated, 0 = no growth, -100 = all killed)
Settings: 10 µM unless noted
Procedure: Growth inhibition of the A549/ATCC human Non-Small Cell Lung tumor cell line is measured as a screen for anti-cancer activity. Cells are grown in 96 well plates and exposed to the test compound for 48 hours. Compounds are tested at a single concentration, which is 10^-5 M for most compounds. The reported endpoint is percent growth (GI% or GIPRCNT), where numbers from 0 - 100% represent growth inhibition, and numbers from -100% - 0 represent cell death. […]
The panel holds about 83,000 compounds, 20% with a hit somewhere; the sample as a whole holds those more often. Calls of active or inactive are those of the source. How the source made its calls: active means growth percent below 10; inactive means the rest.
Consider the following compounds; for each one, report its growth.

Please give the measured growth for this compound: NNC(=O)Cc1ccccc1
86.3% (inactive)

Please give the measured growth for this compound: CC(=O)OC1Oc2cc(C)c(C)cc2-c2oc(=O)c(-c3ccc(F)cc3)cc21 (centres undefined)
52.5% (inactive)

Please give the measured growth for this compound: Fc1ccc(-c2ccnc3nc(-c4ccncc4)nn23)cc1
98.4% (inactive)

Please give the measured growth for this compound: O=c1cc(-c2ccc3c(c2)OCCO3)oc2cc(Cl)ccc12
11.2% (inactive)

Please give the measured growth for this compound: COC(=O)C(C)NC1=C(Cl)C(=O)C(NC(C)C(=O)OC)=C(Cl)C1=O (centres undefined)
98.9% (inactive)

Please give the measured growth for this compound: COc1ccc(C(=O)C(C#N)c2cc(OC)c(OC)c(OC)c2)cc1 (centres undefined)
98.1% (inactive)

Please give the measured growth for this compound: Oc1ccc(Cl)cc1-c1cc(-c2ccccc2Cl)[nH]n1
53.1% (inactive)

Please give the measured growth for this compound: CCOC(=O)C1=C(C)NC(SCc2nnc(-c3ccc(Cl)cc3)o2)=NC1c1ccc(Br)cc1 (centres undefined)
62.4% (inactive)

Please give the measured growth for this compound: CC(C)COC(=O)NC(C)(C)C
101% (inactive)

Please give the measured growth for this compound: N#Cc1c(NN)n(C2OC(CO)C(O)C2O)c2ncnc(N)c12 (centres undefined)
6.43% (active)

Please give the measured growth for this compound: N#CC1=C(N)Oc2nc[nH]c(=O)c2C1c1cccs1 (centres undefined)
95.7% (inactive)

Please give the measured growth for this compound: COC1CC(N)C2OC(c3ccccc3)OCC2O1 (centres undefined)
97.9% (inactive)

Please give the measured growth for this compound: C=CCN(CCOC(=O)c1ccc([N+](=O)[O-])cc1)CCOC(=O)c1ccc([N+](=O)[O-])cc1
102% (inactive)

Please give the measured growth for this compound: Clc1ccc(Nc2ncnc3c2sc2ncccc23)c(Cl)c1
26.8% (inactive)

Please give the measured growth for this compound: Clc1cc(Br)ccc1-c1ccc(CNCC2CCNCC2)o1
17% (inactive)

Please give the measured growth for this compound: CCCCCCCCCCC(C(O)c1ccccc1)N1CCCCC1 (centres undefined)
47.3% (inactive)

Please give the measured growth for this compound: CC(OC(=O)Nc1cccc(Cl)c1)C(=O)O (centres undefined)
99.1% (inactive)

Please give the measured growth for this compound: O=NN(CC(=O)NNc1ccccc1)CC(=O)NNc1ccccc1
65.9% (inactive)

Please give the measured growth for this compound: COc1ccc(-c2nc(-c3ccccc3OCc3ccccc3OC)nc(C)c2C(C)=O)cc1
79.7% (inactive)

Please give the measured growth for this compound: O=C(O)Cn1ccc2ccccc21
99.4% (inactive)

Please give the measured growth for this compound: O=C(NCCNC(=O)c1cc(S(=O)(=O)NCCc2ccccc2)c(O)c(O)c1O)c1cc(S(=O)(=O)NCCc2ccccc2)c(O)c(O)c1O
45.8% (inactive)

Please give the measured growth for this compound: CC(=O)c1cccc(Nc2ncnc3ccc(NC(=O)c4ccco4)cc23)c1
90.4% (inactive)

Please give the measured growth for this compound: Nc1nc(N)c2cc(CNc3ccc(Cl)c(Cl)c3)ccc2n1
17.7% (inactive)

Please give the measured growth for this compound: O=C(Nc1ccc(OS(=O)(=O)c2ccc(F)cc2)cc1)C12CC3CC(CC(C3)C1)C2
56.2% (inactive)

Please give the measured growth for this compound: Clc1ccccc1Nc1nnc(-c2ccncc2)s1
95% (inactive)

Please give the measured growth for this compound: O=c1c2sc3ncc(Cl)cc3c2nnn1-c1cccc(Cl)c1
42.5% (inactive)

Please give the measured growth for this compound: Cc1ccc(NC(=O)c2nc(S(C)=O)oc2-c2ccc(F)cc2)cc1Nc1nccc(-c2cccnc2)n1 (centres undefined)
95.4% (inactive)

Please give the measured growth for this compound: NS(=O)(=O)c1ccc(N2N=C(c3cccs3)CC2c2ccccc2O)cc1 (centres undefined)
7.33% (active)

Please give the measured growth for this compound: CCOC(=O)C(Nc1ccccc1)C(=O)OCC
100% (inactive)

Please give the measured growth for this compound: Nc1c(C(=O)c2ccc(Br)cc2)sc2nc3c(cc12)CCCC3
96.8% (inactive)

Please give the measured growth for this compound: Cc1cc(C)cc(NC(=O)Cn2nncc2CN2C(=O)CSC2=O)c1
102% (inactive)

Please give the measured growth for this compound: COc1ccccc1/C=N\NC(=S)Nc1ccc(F)cc1
68% (inactive)

Please give the measured growth for this compound: O=c1cc(N2CCOCC2)oc2c(-c3ccc4c(c3)OCCO4)csc12
12.9% (inactive)

Please give the measured growth for this compound: COc1ccc(Nc2ncccc2C(=O)NCc2cn(Cc3cc(OC)cc(OC)c3)nn2)cc1
89.5% (inactive)

Please give the measured growth for this compound: Cc1ccc(O)c(Cc2ccccc2)c1
101% (inactive)

Please give the measured growth for this compound: Cc1[nH]n(C(=O)c2ccncc2)c(=O)c1N=Nc1ccc(O)c(C(=O)O)c1
21.9% (inactive)

Please give the measured growth for this compound: Cc1nc2ccc(Nc3nc(Cl)nc(N4CCOCC4)n3)cc2n1Cc1ccccc1
92% (inactive)

Please give the measured growth for this compound: CC(=O)O[C@H]1[C@H](CC#CC#CC[C@@H]2C[C@]3(C)[C@H]4CC=C5[C@H]6[C@@H](C)[C@H](C)CC[C@]6(C(=O)NCCN(CCN)CCN)CC[C@@]5(C)[C@]4(C)CC[C@H]3C(C)(C)[C@H]2OC(C)=O)C[C@]2(C)[C@H]3CC=C4[C@H]5[C@@H](C)[C@H](C)CC[C@]5(C(=O)NCCN(CCN)CCN)CC[C@@]4(C)[C@]3(C)CC[C@H]2C1(C)C
43% (inactive)

Please give the measured growth for this compound: Cc1cc(C)c(C#N)c(SCC(=O)c2sc3c(C#N)c(C)cc(C)[n+]3c2[O-])n1
19.9% (inactive)

Please give the measured growth for this compound: CC(C)c1[nH]ncc1-c1nc2ccc3[nH]ncc3c2c2c1CCCC2
13.9% (inactive)

Please give the measured growth for this compound: Cc1ccc(-c2cnc3sc4ccc(Cl)cc4n23)cc1
112% (inactive)

Please give the measured growth for this compound: Cc1nc([C@H]2CC[C@H]3[C@@H]4CCC5=CC(=O)CC[C@]5(C)[C@H]4CC[C@]23C)cs1
63.3% (inactive)

Please give the measured growth for this compound: COC(=O)C(CCC(=O)CCl)N1C(=O)c2ccccc2C1=O (centres undefined)
104% (inactive)

Please give the measured growth for this compound: COS(=O)(=O)CCN(CCOS(C)(=O)=O)S(C)(=O)=O
90.1% (inactive)
